Parameter growth inhibition: see the listing below.
- Experimental Details: NCI Yeast Anticancer Drug Screen. Data for the mec2-1 strain (AID 157)
- Assay Context: S. cerevisiae mec2-1 strain, at 50.0 µM, active compounds read high
About 79,000 compounds went through this panel and 15% of them were active in at least one assay; those are over-represented in the sample as a whole. Active and inactive are the calls of the source. No stated cut-off is given here; in the data, active means growth inhibition above about 70%; inactive means the rest.
Quantity: growth inhibition

>  <Compound>
CCN(CC)C(=O)c1ccc(C(C)C)cc1

>  <Quantity>
growth inhibition

>  <Observed Value>
14.8% (inactive)

$$$$
>  <Compound>
CC(=O)Oc1ccc2cc(NC(=O)c3ccccc3)c(=O)oc2c1

>  <Quantity>
growth inhibition

>  <Observed Value>
-2.85% (inactive)

$$$$
>  <Compound>
CCc1c2c(cc3c1CC1(C3)Cc3cc4c(c(C(=O)OC)c3C1)CCCC4)CCCC2 (configuration not stated)

>  <Quantity>
growth inhibition

>  <Observed Value>
-16.4% (inactive)

$$$$
>  <Compound>
N#CNC(=NCC1CCCO1)Nc1cccnc1 (configuration not stated)

>  <Quantity>
growth inhibition

>  <Observed Value>
-9.8% (inactive)

$$$$
>  <Compound>
CCN(CC)COC(=O)C(C)(C)C

>  <Quantity>
growth inhibition

>  <Observed Value>
10.6% (inactive)

$$$$
>  <Compound>
COc1nc2n[nH]nc2c(=O)n1C

>  <Quantity>
growth inhibition

>  <Observed Value>
-10.8% (inactive)

$$$$
>  <Compound>
NC(=S)N/N=C/C=C/c1ccco1

>  <Quantity>
growth inhibition

>  <Observed Value>
0.25% (inactive)

$$$$

---

- Experimental Details: NCI Yeast Anticancer Drug Screen. Data for the mlh1 rad18 strain (AID 175)
- Assay Context: S. cerevisiae mlh1 rad18 strain growth inhibition; at 50.0 µM; active compounds read high
About 79,000 compounds went through this panel and 15% of them were active in at least one assay; those are over-represented in the sample as a whole.
Parameter growth inhibition: see the listing below.

>  <Molecule>
CC(C)=CCNc1ncnc2c1ncn2CCC#N

>  <growth inhibition, %>
-21.4

$$$$
>  <Molecule>
CC(=O)NC(C(=O)O)C(C)(C)S (stereo not given)

>  <growth inhibition, %>
8.95

$$$$
>  <Molecule>
Cc1cc(NC(=S)Nc2ccccc2)c(NC(=S)Nc2ccccc2)cc1C

>  <growth inhibition, %>
3.2

$$$$
>  <Molecule>
COc1c([N+](=O)[O-])ccc(C(OC(C)=O)OC(C)=O)c1OC(C)=O

>  <growth inhibition, %>
29.4

$$$$
>  <Molecule>
CCOCC1c2ccccc2CCN1Cc1c[nH]c2ccccc12 (stereo not given)

>  <growth inhibition, %>
-4.55

$$$$
>  <Molecule>
COc1ccc2c(c1)N(CC(C)CN(C)C)c1ccccc1S2 (stereo not given)

>  <growth inhibition, %>
11.4

$$$$
>  <Molecule>
Fc1ccc(Oc2nc3ccccc3nc2-c2ccccc2)cc1

>  <growth inhibition, %>
25.7

$$$$
>  <Molecule>
CN(C)C(=O)Nc1cccc(OC(=O)NC2CC2)c1

>  <growth inhibition, %>
-4.1

$$$$
>  <Molecule>
C(=N/OC(c1ccccc1)(c1ccccc1)c1ccccc1)/c1ccccc1

>  <growth inhibition, %>
6.45

$$$$
>  <Molecule>
CC(C)(c1ccc([N+](=O)[O-])cc1)c1ccc(N)c([N+](=O)[O-])c1

>  <growth inhibition, %>
-13.1

$$$$
>  <Molecule>
NC(=O)c1c[nH]c(=O)cc1O

>  <growth inhibition, %>
0

$$$$
>  <Molecule>
CN1CCN(CCCN2CC(=O)N3Cc4ccccc4CN3C(=O)C2)CC1

>  <growth inhibition, %>
-3

$$$$
>  <Molecule>
Cc1c(CCCl)c(Cl)n2c(nc3ccccc32)c1C#N

>  <growth inhibition, %>
57.1

$$$$
>  <Molecule>
O=c1c(SCc2ccc(Br)cc2)c(SCc2ccc(Br)cc2)cnn1-c1ccccc1

>  <growth inhibition, %>
14.8

$$$$
>  <Molecule>
COC(=O)c1c(C)oc(C)c1-c1ccc(OCc2ccccc2)c(OC)c1

>  <growth inhibition, %>
2.7

$$$$
>  <Molecule>
Cc1cccc2c1CCC21OC(=O)c2c1ccc1ccccc21 (stereo not given)

>  <growth inhibition, %>
15.1

$$$$
>  <Molecule>
CC(C)OC(=S)Nc1ccc(Cl)c(COC(C)(C)C)c1

>  <growth inhibition, %>
-7.4

$$$$
>  <Molecule>
COC(=O)C(C(=O)C(=O)Nc1nc2ccc(OC)cc2s1)c1cnc2ccccc2n1 (stereo not given)

>  <growth inhibition, %>
-6.15

$$$$
>  <Molecule>
CCC(=O)c1ccc([N+](=O)[O-])cc1

>  <growth inhibition, %>
-10.2

$$$$
>  <Molecule>
CC(=O)OCC1OC2OC(C)(C)OC2C2OC(C)(C)OC12 (stereo not given)

>  <growth inhibition, %>
-12.8

$$$$
>  <Molecule>
NCCCOc1ccccc1

>  <growth inhibition, %>
-9.35

$$$$
>  <Molecule>
COc1cc2oc(=O)ccc2cc1[C@@H]1OC(=O)[C@@]2(C)O[C@@H]12

>  <growth inhibition, %>
-2.85

$$$$
>  <Molecule>
COc1cccc(NC(=O)C(=O)C2C=CCS2(=O)=O)c1 (stereo not given)

>  <growth inhibition, %>
-13

$$$$
>  <Molecule>
CCCCCCCCCCCCCCCCSc1ccc2ccccc2c1

>  <growth inhibition, %>
0.2

$$$$
>  <Molecule>
NC(N)=N/N=C/c1c(Cl)nc2sccn12

>  <growth inhibition, %>
-5.6

$$$$

---

- Experimental Details: NCI Yeast Anticancer Drug Screen. Data for the mec2-1 strain (AID 157)
- Assay Context: S. cerevisiae mec2-1 strain, at 50.0 µM, active compounds read high
About 79,000 compounds went through this panel and 15% of them were active in at least one assay; those are over-represented in the sample as a whole. Where a SMILES comes first, the peptide text is derived from it. The star is where a group is joined. Cbz = O=C(OCc1ccccc1)*
Quantity: growth inhibition (%)

>  <Molecule>
CN(C)CC1CCc2c(n(C)c3ccccc23)C1=O (centres undefined)

>  <Units Of Measure>
%

>  <Observed Value>
-2.85

$$$$
>  <Molecule>
CC(=O)c1c(N)n(C)c(=O)n(C)c1=O

>  <Units Of Measure>
%

>  <Observed Value>
2.9

$$$$
>  <Molecule>
C=CCCC1CN2CCc3cc(OC)c(OC)cc3C2CC1=O (centres undefined)

>  <Units Of Measure>
%

>  <Observed Value>
16.1

$$$$
>  <Molecule>
O=[N+]([O-])C(C=Nc1ccccc1)C=Nc1ccccc1 (centres undefined)

>  <Units Of Measure>
%

>  <Observed Value>
-23

$$$$
>  <Molecule>
O=C(/C=C/c1cccs1)c1ccc(Cl)cc1

>  <Units Of Measure>
%

>  <Observed Value>
-41.3

$$$$
>  <Molecule>
O=C(Nc1cccc([N+](=O)[O-])c1)C(=O)C(C(=O)c1ccccc1F)C1OC(=O)C2C=CC=CC21 (centres undefined)

>  <Units Of Measure>
%

>  <Observed Value>
15.9

$$$$
>  <Molecule>
CCOC(=O)CCC(NC(=O)C(CCC(=O)OCC)NC(=O)OCc1ccccc1)C(=O)O (centres undefined) (tested in a mixture with another compound) (Cbz-Glu(OEt)-Glu(OEt)-OH; configuration not given here)

>  <Units Of Measure>
%

>  <Observed Value>
1.15

$$$$
>  <Molecule>
O=CN(CCO)CCO

>  <Units Of Measure>
%

>  <Observed Value>
1.25

$$$$
>  <Molecule>
CCOC(=O)N1N(C(=O)c2ccccc2)C(=O)CC1(C)C

>  <Units Of Measure>
%

>  <Observed Value>
8.2

$$$$
>  <Molecule>
COc1cc(C=C2C(=O)NC(=O)NC2=O)ccc1OCc1ccccc1

>  <Units Of Measure>
%

>  <Observed Value>
-1.5

$$$$
>  <Molecule>
O=C(c1nc2ccc(Cl)cc2[nH]c1=O)C(O)c1ccc2c(c1)OCO2 (centres undefined)

>  <Units Of Measure>
%

>  <Observed Value>
-10.2

$$$$
>  <Molecule>
Cc1ccc(C)c(N=C2NC(=O)C(CC(=O)Nc3ccc(Cl)cc3Cl)S2)c1 (centres undefined)

>  <Units Of Measure>
%

>  <Observed Value>
2.75

$$$$
>  <Molecule>
CSc1[nH]c2ncnc(Cl)c2c1C#N

>  <Units Of Measure>
%

>  <Observed Value>
10.3

$$$$
>  <Molecule>
CCOC(=O)C1=CN(Cc2ccccc2)C2ON=C(c3ccc(Cl)cc3)C2C1 (centres undefined)

>  <Units Of Measure>
%

>  <Observed Value>
2.3

$$$$
>  <Molecule>
CC/C=C\C/C=C\C/C=C\CCCCCCCC(=O)OC(COC(=O)CCCCCCCCCCCCCCCCC)COC1OC(CO)C(O)C(O)C1O (centres undefined)

>  <Units Of Measure>
%

>  <Observed Value>
8.55

$$$$
>  <Molecule>
CCC1=C[C@H]2CN(CCc3c([nH]c4ccccc34)[C@@](C(=O)OC)(c3cc4c(cc3OC)N(C)[C@H]3C(C(=O)OC)=C[C@]5(CC)C=CCN6CC[C@]43[C@@H]65)C2)C1

>  <Units Of Measure>
%

>  <Observed Value>
-14.4

$$$$
>  <Molecule>
Cc1cc(Br)cc(C)c1NC(=O)C(=O)C1C(=O)C(CC2C(=O)c3ccccc3C2=O)C(=O)CC1(C)C (centres undefined)

>  <Units Of Measure>
%

>  <Observed Value>
22.9

$$$$
>  <Molecule>
O=c1[nH]c2ccccc2nc1/C=C/n1c(=S)[nH]c2ccccc21

>  <Units Of Measure>
%

>  <Observed Value>
-28.2

$$$$
>  <Molecule>
CC(C)(C)c1cc(Nc2c([N+](=O)[O-])cc([N+](=O)[O-])cc2[N+](=O)[O-])cc(C(C)(C)C)c1O

>  <Units Of Measure>
%

>  <Observed Value>
10.4

$$$$
